We begin with a simple list: items and their reported self-cleavage.
B1: HDV Ribozyme (parent)
chain: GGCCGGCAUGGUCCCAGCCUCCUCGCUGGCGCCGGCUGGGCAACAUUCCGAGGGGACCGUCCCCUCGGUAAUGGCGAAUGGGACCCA

- Variants of: B1
- assay method text: self-cleavage, relative activity (ratio to wild type); higher = more cleavage; co-transcriptional
The reply should be a number, written without any unit.

alteration	numeric value
C66U G80U	0.295
G6C C48U	0.277

Kindly indicate its recorded self-cleavage. Item: U27C G29C
0.107
